Test system: MDA-MB-468
test-name: cells
protocol-conditions: Homo sapiens, MDA-MB-468, 24 h
Description: Antiproliferative activity against human MDA-MB-468 cells assessed as reduction in cell viability incubated for 24 hrs by MTT assay
reported-metric: IC50 (µM)

compound=O=C(NCc1cc(C(F)(F)F)cc(C(F)(F)F)c1)Nc1cccc(F)c1 result_number=17.5
compound=C/C(=N\NC(=O)c1ccc(C)c(I)c1)c1ccc(N)cc1 result_number=9.54
compound=Cc1ccc(C(=O)NCc2ccc(O)cc2)cc1Br result_number=41.9
compound=O=C(Nc1ccc(C(F)(F)F)cc1)Nc1cccc(F)c1 result_number=11.9
compound=C/C(=N\NC(=O)c1cccc(Br)c1)c1ccc(N)cc1 result_number=13.1
compound=C/C(=N\NC(=O)c1cccc(Br)c1)c1cc(O)cc(O)c1 result_number=11
compound=O=C(NCc1ccc(O)cc1)Nc1ccc(C(F)(F)F)cc1 result_number=17.5
compound=O=C(Nc1nc2ccccc2[nH]1)c1ccc(OC(F)(F)F)cc1 result_number=24.1
compound=C/C(=N\NC(=O)c1ccc(C)c(Br)c1)c1ccc(N)cc1 result_number=12.1
compound=O=C(NCc1ccc(O)cc1)Nc1cccc(F)c1 result_number=34.1
compound=C/C(=N\NC(=O)c1ccc(C)c(Br)c1)c1ccncc1 result_number=8.69
compound=Cc1ccc(C(=O)NCCc2ccc(O)cc2)cc1Br result_number=33.7
compound=C/C(=N\NC(=O)c1cccc(Br)c1)c1ccc(C(=O)Nc2cc(N3CCOCC3)ccn2)cc1 result_number=10.2
compound="CC(NC(=O)Nc1cccc(F)c1)c1ccccc1 (configuration not stated)" result_number=31.9
compound=O=C(Nc1cccc(F)c1)Nc1nc2ccccc2[nH]1 result_number=24.1
compound=Cc1ccc(C(=O)Nc2ccc3ccccc3n2)cc1Br result_number=27.5
compound=O=C(Nc1ccc(C(F)(F)F)cc1)Nc1nc2ccccc2[nH]1 result_number=23.7
compound="CC(NC(=O)Nc1cccc(Cl)c1)c1ccccc1 (configuration not stated)" result_number=23.7
compound=C/C(=N\NC(=O)c1ccc(C)c(I)c1)c1ccc(C(F)(F)F)cc1 result_number=8.76
compound=Cc1ccc(C(=O)Nc2cc3ccccc3cn2)cc1Br result_number=25.9
compound=C/C(=N\NC(=O)c1cccc(F)c1)c1ccc(O)cc1O result_number=9.24
compound=C/C(=N\NC(=O)c1ccc(C)c(I)c1)c1ccncc1 result_number=10.3

----------
Tested on: MDA-MB-468
test-name: cells
protocol-conditions: Homo sapiens, MDA-MB-468, 24 h
pIC50: −log10 of the molar value.
reported-metric: pIC50

cpd_smiles=C/C(=N\NC(=O)c1cccc(Br)c1)c1ccc(C(=O)Nc2cc[nH]n2)cc1 reported_metric=pIC50 result_number=5.08
cpd_smiles=O=C(NCc1cc(C(F)(F)F)cc(C(F)(F)F)c1)Nc1ccc(C(F)(F)F)cc1 reported_metric=pIC50 result_number=4.75
cpd_smiles=C/C(=N\NC(=O)c1ccc(C)c(Br)c1)c1ccc(C(F)(F)F)cc1 reported_metric=pIC50 result_number=5.00
cpd_smiles=CO[C@H]1C[C@@H]2CC[C@@H](C)[C@@](O)(O2)C(=O)C(=O)N2CCCC[C@H]2C(=O)O[C@H]([C@H](C)C[C@@H]2CC[C@@H](OC(=O)C(C)(CO)CO)[C@H](OC)C2)CC(=O)[C@H](C)/C=C(\C)[C@@H](O)[C@@H](OC)C(=O)[C@H](C)C[C@H](C)/C=C/C=C/C=C/1C reported_metric=pIC50 result_number=4.96
cpd_smiles=C/C(=N\NC(=O)c1cccc(I)c1)c1ccc(C(=O)O)cc1 reported_metric=pIC50 result_number=5.20
cpd_smiles=CN(Cc1ccccc1)C(=O)Nc1ccc(C(F)(F)F)cc1 reported_metric=pIC50 result_number=4.66
cpd_smiles=O=C(NCc1cccc(Br)c1)Nc1ccc(C(F)(F)F)cc1 reported_metric=pIC50 result_number=4.61
cpd_smiles=O=C(NCc1ccc(O)cc1)Nc1cccc(Cl)c1 reported_metric=pIC50 result_number=4.59
cpd_smiles=C/C(=N\NC(=O)c1ccc(C)c(F)c1)c1ccc(N)cc1 reported_metric=pIC50 result_number=5.02
